# ASSAY NOTES: TLR3 IRF3 reporter activation blockers – cell-based, poly I:C stimulus, luciferase, 10K MLSCN set, primary screen (AID 602277)
# CONDITION LABEL: HEK293-TLR3 RL24 IRF3 luciferase reporter, at 10 µM, stronger effect = higher value
The source made the active and inactive calls.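 How the source made its calls: active means inhibition of the reporter signal at or above 50%; inactive means inhibition below 50%.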
READOUT: inhibition

Please review the entries below; each comes with its answer.
- COMPOUND: "Cc1cc(=O)[nH]c2c1cnn2Cc1ccccc1"
  inhibition: "15.7% (inactive)"
- COMPOUND: "CC1Oc2ccccc2N(CC(=O)N(Cc2ccccc2)Cc2ccccn2)C1=O (stereo unspecified)"
  inhibition: "-7.77% (inactive)"
- COMPOUND: "OCC#CCSc1nnc(-c2ccccc2Br)o1"
  inhibition: "-45.2% (inactive)"
- COMPOUND: "O=c1oc2ccccc2c(N2CCCCC2)c1CN1CCCCC1"
  inhibition: "-1.22% (inactive)"
- COMPOUND: "CCC(=O)N1CCc2cc(S(=O)(=O)CCC(=O)Nc3nc(C)cs3)ccc21"
  inhibition: "21.5% (inactive)"

Next item in the queue.
Task item: Please give the measured inhibition for this compound: O=C(NCCCN1CCOCC1)C1CC(=O)N(CCc2ccccc2)C1 (stereo unspecified)
Reply: 22.3% (inactive)
